System: Female BALB/c mice
Test: Performance evaluation of in vivo delivery of Fluc mRNA lipid nanoparticle (IVIS, body and organs)
Settings: Fluc mRNA LNP, 75 μL IV, 6 hours after injection, IVIS, spleen
Collected Spleen (fluorescence expression intensity) values appear next to each entry.
REPORTED_PROPERTY: Spleen (fluorescence expression intensity)

COMPOUND	OBSERVED
CCCCCCC(CCCCCC)OC(=O)CCCCCCCCC(CCCCCCCCC(=O)OC(CCCCCC)CCCCCC)OC(=O)N(CCCN(C)C)CCC(=O)OCCCCC [Compound 265]	1.91E+06
CCCCCCC(CCCCCC)OC(=O)CCCCCCCCC(CCCCCCCCC(=O)OC(CCCCCC)CCCCCC)OC(=O)N(CCCCC(=O)OC(CC)CC)CCCN(C)C [Compound 304]	1.48E+07
CCCCCCCOC(=O)CCN(CCCN(C)C)C(=O)OC(CCCCCCCCC(=O)OC(CCCCCC)CCCCCC)CCCCCCCCC(=O)OC(CCCCCC)CCCCCC [Compound 267]	1.54E+06
CCCCCCOC(=O)CCN(CCCN(C)C)C(=O)OC(CCCCCCCCC(=O)OC(CCCCCC)CCCCCC)CCCCCCCCC(=O)OC(CCCCCC)CCCCCC [Compound 266]	1.60E+06
CCCCCCC(CCCCCC)OC(=O)CCCCCCCCC(CCCCCCCCC(=O)OC(CCCCCC)CCCCCC)OC(=O)N(CCCC(=O)OCCCC)CCCN(C)C [Compound 259]	1.29E+07
CCCCCCC(CCCCCC)OC(=O)CCCCCCCCC(CCCCCCCCC(=O)OC(CCCCCC)CCCCCC)OC(=O)N(CCCC(=O)OC(C)CCC)CCCN(C)C (stereo not drawn) [Compound 309]	3.44E+06

Data origin, for the record: patent US20250250227A1
